Assay: Binding affinity to 5'-FPu22T-3'-labelled c-myc G-quadruplex DNA (unknown origin) assessed as change in melting temperature by FRET assay
reportedMetric: ΔTm (°C)
Give bare numbers, in °C.

>  <smilesCode>
O=C(CCN1CCOCC1)Nc1ccc(Nc2nc(-c3ccccc3NC(=O)CCN3CCOCC3)nc3ccccc23)cc1

>  <ΔTm / °C>
4.8

$$$$

Report ΔTm for each item below.
1. CCN(CC)CCCOc1ccc(Nc2nc(N(CC)CC)nc3ccccc23)cc1
2. CCN(CC)CCOc1ccc(Nc2nc(-c3ccccc3O)nc3ccccc23)cc1
3. CCN(CC)CCC(=O)Nc1ccc(Nc2nc(Cl)nc3ccccc23)cc1
4. O=C(CN1CCCC1)Nc1ccc(Nc2nc(-c3ccccc3NC(=O)CN3CCCC3)nc3ccccc23)cc1
5. CN1CCN(CCOc2ccc(Nc3nc(-c4ccccc4O)nc4ccccc34)cc2)CC1
6. O=C(CCCN1CCCC1)Nc1ccc(Nc2nc(-c3ccccc3NC(=O)CCCN3CCCC3)nc3ccccc23)cc1
7. CCN(CC)CC(=O)Nc1ccc(Nc2nc(-c3ccc(O)cc3)nc3ccccc23)cc1
8. CCN(CC)CCC(=O)Nc1ccc(Nc2nc(-c3ccccc3N)nc3ccccc23)cc1

Data returned:
1. 8.2
2. 0.4
3. 1
4. 13.3
5. 0.4
6. 12.6
7. 7.2
8. 5.3
